Value source: paper PMC9838217

- TGT: SALL4 ZFC4 WT (HT-SELEX) (Mus musculus, UniProt Q8BX22 870-940)
- Sequence: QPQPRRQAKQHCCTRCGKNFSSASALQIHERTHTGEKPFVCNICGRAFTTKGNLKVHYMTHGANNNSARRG
- ASSAY_INFO: HT-SELEX; high values mean tight binding
- CONDITION_CONTEXT: protein: recombinant; vector His6-GST; dsDNA, one strand shown
QUANTITY: binding signal (fold-change vs cycle 0)
Give just the number in fold-change vs cycle 0; leave the unit off.

Consider the following illustrative entries.
CGATGA
0.734
ATCATC
1.5
TGAGCA
0.639

IN: For the sequence shown here, GGCTAA , give the reported binding signal.
OUT: 0.523

IN: For the sequence shown here, AGTTTA , give the reported binding signal.
OUT: 1.89

IN: For the sequence shown here, CTGAGA , give the reported binding signal.
OUT: 0.788

IN: For the sequence shown here, CGTTTA , give the reported binding signal.
OUT: 1.06

IN: For the sequence shown here, TAGACA , give the reported binding signal.
OUT: 1.18

IN: For the sequence shown here, ATACTG , give the reported binding signal.
OUT: 1.31

IN: For the sequence shown here, AAGCTC , give the reported binding signal.
OUT: 0.631

IN: For the sequence shown here, GGTACC , give the reported binding signal.
OUT: 0.421

IN: For the sequence shown here, AACTGG , give the reported binding signal.
OUT: 0.753

IN: For the sequence shown here, GATCTA , give the reported binding signal.
OUT: 1.25

IN: For the sequence shown here, GGGACA , give the reported binding signal.
OUT: 0.383

IN: For the sequence shown here, AATCCC , give the reported binding signal.
OUT: 0.882

IN: For the sequence shown here, GAACAC , give the reported binding signal.
OUT: 0.766

IN: For the sequence shown here, AACTTG , give the reported binding signal.
OUT: 1.21

IN: For the sequence shown here, AGACCA , give the reported binding signal.
OUT: 0.701

---

- TGT: SALL4 ZFC4 WT (HT-SELEX) (Mus musculus, UniProt Q8BX22 870-940)
- Sequence: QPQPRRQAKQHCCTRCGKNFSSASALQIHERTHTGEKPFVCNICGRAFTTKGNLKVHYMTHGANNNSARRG
- ASSAY_INFO: HT-SELEX; high values mean tight binding
- CONDITION_CONTEXT: protein: recombinant; vector His6-GST; dsDNA, one strand shown
QUANTITY: binding signal (fold-change vs cycle 0)
Give just the number in fold-change vs cycle 0; leave the unit off.

Consider the following illustrative entries.
GCTAGA
0.636
GCCAAA
0.353
TGACAA
1.16
AAGCAG
0.683
TTAAAA
2.8
AAGAGC
0.752
ATAGGC
0.52
CGAGAG
0.428
ACACGG
0.354
AGGCAG
0.306

IN: For the sequence shown here, CCAAGA , give the reported binding signal.
OUT: 0.78

---

- TGT: SALL4 ZFC4 WT (HT-SELEX) (Mus musculus, UniProt Q8BX22 870-940)
- Sequence: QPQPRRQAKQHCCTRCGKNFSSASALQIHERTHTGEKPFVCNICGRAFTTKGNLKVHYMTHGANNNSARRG
- ASSAY_INFO: HT-SELEX; high values mean tight binding
- CONDITION_CONTEXT: protein: recombinant; vector His6-GST; dsDNA, one strand shown
binding signal by entry:
Give just the number in fold-change vs cycle 0; leave the unit off.

Consider the following illustrative entries.
AGAGTC
0.786
ATCCCC
0.549
CTTAAA
1.73

IN: For the sequence shown here, AAGATT , give the reported binding signal.
OUT: 2.05

IN: For the sequence shown here, ACATCA , give the reported binding signal.
OUT: 1.32

IN: For the sequence shown here, ACGGAG , give the reported binding signal.
OUT: 0.414

IN: For the sequence shown here, TGGGAA , give the reported binding signal.
OUT: 0.795

IN: For the sequence shown here, CTCGAA , give the reported binding signal.
OUT: 0.675

IN: For the sequence shown here, ACCCAA , give the reported binding signal.
OUT: 0.736

IN: For the sequence shown here, AGTCTC , give the reported binding signal.
OUT: 0.837

IN: For the sequence shown here, GTAAAA , give the reported binding signal.
OUT: 1.69

IN: For the sequence shown here, AATAGT , give the reported binding signal.
OUT: 1.96

IN: For the sequence shown here, AGGACT , give the reported binding signal.
OUT: 0.864

IN: For the sequence shown here, ACCTGG , give the reported binding signal.
OUT: 0.46

IN: For the sequence shown here, ATTAAA , give the reported binding signal.
OUT: 3.73

IN: For the sequence shown here, ACATAC , give the reported binding signal.
OUT: 1.3

---

- TGT: SALL4 ZFC4 WT (HT-SELEX) (Mus musculus, UniProt Q8BX22 870-940)
- Sequence: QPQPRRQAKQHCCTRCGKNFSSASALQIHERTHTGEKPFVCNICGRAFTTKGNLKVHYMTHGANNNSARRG
- ASSAY_INFO: HT-SELEX; high values mean tight binding
- CONDITION_CONTEXT: protein: recombinant; vector His6-GST; dsDNA, one strand shown
QUANTITY: binding signal (fold-change vs cycle 0)
Give just the number in fold-change vs cycle 0; leave the unit off.

IN: For the sequence shown here, ACTCAG , give the reported binding signal.
OUT: 0.865

IN: For the sequence shown here, ATCTCA , give the reported binding signal.
OUT: 1.42

---

- TGT: SALL4 ZFC4 G921D (HT-SELEX) (Mus musculus, UniProt Q8BX22 870-940, G921D)
- Sequence: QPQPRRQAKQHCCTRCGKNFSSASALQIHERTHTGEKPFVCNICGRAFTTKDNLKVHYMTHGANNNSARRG
- ASSAY_INFO: HT-SELEX; high values mean tight binding
- CONDITION_CONTEXT: protein: recombinant; vector His6-GST; dsDNA, one strand shown
binding signal by entry:
Give just the number in fold-change vs cycle 0; leave the unit off.

Consider the following illustrative entries.
CGCACG
0.21
GCCGGC
0.112
GAGGCC
0.286
CTCTGA
0.993
AGTCTC
1
GAGTGC
0.554
CAGGGG
0.417

IN: For the sequence shown here, GCACAC , give the reported binding signal.
OUT: 0.583

---

- TGT: SALL4 ZFC4 G921D (HT-SELEX) (Mus musculus, UniProt Q8BX22 870-940, G921D)
- Sequence: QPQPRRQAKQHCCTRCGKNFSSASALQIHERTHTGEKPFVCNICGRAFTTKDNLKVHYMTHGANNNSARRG
- ASSAY_INFO: HT-SELEX; high values mean tight binding
- CONDITION_CONTEXT: protein: recombinant; vector His6-GST; dsDNA, one strand shown
Classes (binding signal): range 1: < 0.7 fold-change vs cycle 0; range 2: ≥ 0.7 fold-change vs cycle 0 and < 1 fold-change vs cycle 0; range 3: ≥ 1 fold-change vs cycle 0

TCAAAA
range 3
ATCTGG
range 2
CTCTCA
range 3
CTATCA
range 3
TAGGAA
range 3

IN: Form field 'band' for TGCCAA
OUT: range 1

IN: Form field 'band' for TACGGA
OUT: range 2

IN: Form field 'band' for CACTAA
OUT: range 3

---

binding signal by entry:
- TGT: SALL4 ZFC4 G921D (HT-SELEX) (Mus musculus, UniProt Q8BX22 870-940, G921D)
- Sequence: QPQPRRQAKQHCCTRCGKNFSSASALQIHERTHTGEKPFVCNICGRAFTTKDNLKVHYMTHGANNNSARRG
- ASSAY_INFO: HT-SELEX; high values mean tight binding
- CONDITION_CONTEXT: protein: recombinant; vector His6-GST; dsDNA, one strand shown
Give just the number in fold-change vs cycle 0; leave the unit off.

Consider the following illustrative entries.
CCGTAG
0.516
AGTGAG
1.05
GGTCAA
0.867
AACACT
1.33
AGCGGA
0.432

IN: For the sequence shown here, CAGCAC , give the reported binding signal.
OUT: 0.476

IN: For the sequence shown here, ATGCGG , give the reported binding signal.
OUT: 0.409

IN: For the sequence shown here, ACTGTC , give the reported binding signal.
OUT: 0.901

IN: For the sequence shown here, CGGTAG , give the reported binding signal.
OUT: 0.514

IN: For the sequence shown here, AACAAT , give the reported binding signal.
OUT: 1.79

IN: For the sequence shown here, CGGCCA , give the reported binding signal.
OUT: 0.19

IN: For the sequence shown here, AGGGGG , give the reported binding signal.
OUT: 0.443

IN: For the sequence shown here, CACTCA , give the reported binding signal.
OUT: 0.995

IN: For the sequence shown here, AACTCC , give the reported binding signal.
OUT: 1.06

IN: For the sequence shown here, CTAGAC , give the reported binding signal.
OUT: 0.932

IN: For the sequence shown here, GAAAAA , give the reported binding signal.
OUT: 1.47

IN: For the sequence shown here, CGTCGC , give the reported binding signal.
OUT: 0.194

IN: For the sequence shown here, CGATAA , give the reported binding signal.
OUT: 1.15

IN: For the sequence shown here, TAATTA , give the reported binding signal.
OUT: 2.33

IN: For the sequence shown here, ATCTCA , give the reported binding signal.
OUT: 1.43

IN: For the sequence shown here, ACCACT , give the reported binding signal.
OUT: 0.93
